We begin with a simple list: items and their reported DC50.
Target: SMARCA4 (Homo sapiens, UniProt P51532)
Sequence (P51532 whole entry): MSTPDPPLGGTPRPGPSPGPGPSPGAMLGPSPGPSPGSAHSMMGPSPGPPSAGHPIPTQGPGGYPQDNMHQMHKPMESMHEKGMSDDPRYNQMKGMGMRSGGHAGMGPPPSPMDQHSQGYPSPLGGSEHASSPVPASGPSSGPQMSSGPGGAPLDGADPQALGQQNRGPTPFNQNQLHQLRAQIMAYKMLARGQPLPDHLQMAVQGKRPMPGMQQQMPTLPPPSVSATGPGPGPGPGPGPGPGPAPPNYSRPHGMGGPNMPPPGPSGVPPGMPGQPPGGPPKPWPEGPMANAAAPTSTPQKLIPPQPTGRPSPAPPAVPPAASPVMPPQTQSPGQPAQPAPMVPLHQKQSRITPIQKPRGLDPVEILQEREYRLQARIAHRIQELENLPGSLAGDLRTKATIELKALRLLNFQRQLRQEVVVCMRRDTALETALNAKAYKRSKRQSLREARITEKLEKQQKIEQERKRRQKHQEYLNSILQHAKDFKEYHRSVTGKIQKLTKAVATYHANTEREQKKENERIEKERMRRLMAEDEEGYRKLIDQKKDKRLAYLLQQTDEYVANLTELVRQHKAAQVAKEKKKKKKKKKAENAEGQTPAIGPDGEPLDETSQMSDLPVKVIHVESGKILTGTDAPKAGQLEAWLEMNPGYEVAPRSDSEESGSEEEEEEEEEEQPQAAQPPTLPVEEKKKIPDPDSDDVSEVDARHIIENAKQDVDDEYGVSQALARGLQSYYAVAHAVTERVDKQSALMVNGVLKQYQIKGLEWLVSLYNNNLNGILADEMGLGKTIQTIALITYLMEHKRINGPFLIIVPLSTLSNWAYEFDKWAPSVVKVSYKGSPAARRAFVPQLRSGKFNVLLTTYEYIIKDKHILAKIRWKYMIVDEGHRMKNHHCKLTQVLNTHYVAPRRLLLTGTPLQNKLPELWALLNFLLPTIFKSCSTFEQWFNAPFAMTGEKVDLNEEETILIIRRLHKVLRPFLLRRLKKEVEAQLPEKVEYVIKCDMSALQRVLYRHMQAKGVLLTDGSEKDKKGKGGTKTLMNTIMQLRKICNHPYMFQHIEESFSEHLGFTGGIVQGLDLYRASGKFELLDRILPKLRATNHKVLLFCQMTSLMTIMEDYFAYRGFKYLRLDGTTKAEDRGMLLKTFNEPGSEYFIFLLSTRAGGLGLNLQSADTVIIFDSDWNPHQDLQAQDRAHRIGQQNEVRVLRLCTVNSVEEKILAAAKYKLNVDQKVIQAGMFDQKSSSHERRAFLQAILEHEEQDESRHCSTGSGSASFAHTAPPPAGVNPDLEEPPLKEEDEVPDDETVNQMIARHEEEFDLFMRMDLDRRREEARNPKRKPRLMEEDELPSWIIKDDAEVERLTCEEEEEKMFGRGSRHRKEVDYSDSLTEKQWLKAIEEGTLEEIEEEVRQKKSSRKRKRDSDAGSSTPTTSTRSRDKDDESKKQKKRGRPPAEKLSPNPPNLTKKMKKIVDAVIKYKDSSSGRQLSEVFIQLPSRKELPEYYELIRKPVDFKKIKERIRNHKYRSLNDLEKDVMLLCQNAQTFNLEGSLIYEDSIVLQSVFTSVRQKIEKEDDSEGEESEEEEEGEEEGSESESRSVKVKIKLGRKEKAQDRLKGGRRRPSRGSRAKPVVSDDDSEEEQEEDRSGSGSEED
Test: HiBiT assay for protein degradation, Hela SMARCA4-HiBiT cells (A series)
Type: cell-based
Set-up: fuse HiBiT to the carboxy terminus of SMARCA2 (Promega CS302365) or SMARCA4 (Promega CS3023225); host or cells: HeLa (CRISPR/Cas9 HiBiT knock-in)
Conditions: Hela SMARCA4-HiBiT cells, 24 hours treatment; read-out: SMARC A4 Hela HiBit DC50

Inquiry: // query DC50 value for entry Cc1ncsc1-c1ccc([C@H](C)NC(=O)[C@@H]2C[C@@H](O)CN2C(=O)[C@@H](NC(=O)CN2CCC(c3ccc4c(c3)-n3c(nc(=O)c5c(Cl)cccc53)C43CCCCC3)CC2)C(C)(C)C)cc1 [Compound A39]
Reply text: < 100 nM
